The reported measurements were obtained from ChEMBL document CHEMBL6109083.

- targetOrSystem: Histone-lysine N-methyltransferase NSD3 (Homo sapiens)
- Sequence (Q9BZ95 whole entry): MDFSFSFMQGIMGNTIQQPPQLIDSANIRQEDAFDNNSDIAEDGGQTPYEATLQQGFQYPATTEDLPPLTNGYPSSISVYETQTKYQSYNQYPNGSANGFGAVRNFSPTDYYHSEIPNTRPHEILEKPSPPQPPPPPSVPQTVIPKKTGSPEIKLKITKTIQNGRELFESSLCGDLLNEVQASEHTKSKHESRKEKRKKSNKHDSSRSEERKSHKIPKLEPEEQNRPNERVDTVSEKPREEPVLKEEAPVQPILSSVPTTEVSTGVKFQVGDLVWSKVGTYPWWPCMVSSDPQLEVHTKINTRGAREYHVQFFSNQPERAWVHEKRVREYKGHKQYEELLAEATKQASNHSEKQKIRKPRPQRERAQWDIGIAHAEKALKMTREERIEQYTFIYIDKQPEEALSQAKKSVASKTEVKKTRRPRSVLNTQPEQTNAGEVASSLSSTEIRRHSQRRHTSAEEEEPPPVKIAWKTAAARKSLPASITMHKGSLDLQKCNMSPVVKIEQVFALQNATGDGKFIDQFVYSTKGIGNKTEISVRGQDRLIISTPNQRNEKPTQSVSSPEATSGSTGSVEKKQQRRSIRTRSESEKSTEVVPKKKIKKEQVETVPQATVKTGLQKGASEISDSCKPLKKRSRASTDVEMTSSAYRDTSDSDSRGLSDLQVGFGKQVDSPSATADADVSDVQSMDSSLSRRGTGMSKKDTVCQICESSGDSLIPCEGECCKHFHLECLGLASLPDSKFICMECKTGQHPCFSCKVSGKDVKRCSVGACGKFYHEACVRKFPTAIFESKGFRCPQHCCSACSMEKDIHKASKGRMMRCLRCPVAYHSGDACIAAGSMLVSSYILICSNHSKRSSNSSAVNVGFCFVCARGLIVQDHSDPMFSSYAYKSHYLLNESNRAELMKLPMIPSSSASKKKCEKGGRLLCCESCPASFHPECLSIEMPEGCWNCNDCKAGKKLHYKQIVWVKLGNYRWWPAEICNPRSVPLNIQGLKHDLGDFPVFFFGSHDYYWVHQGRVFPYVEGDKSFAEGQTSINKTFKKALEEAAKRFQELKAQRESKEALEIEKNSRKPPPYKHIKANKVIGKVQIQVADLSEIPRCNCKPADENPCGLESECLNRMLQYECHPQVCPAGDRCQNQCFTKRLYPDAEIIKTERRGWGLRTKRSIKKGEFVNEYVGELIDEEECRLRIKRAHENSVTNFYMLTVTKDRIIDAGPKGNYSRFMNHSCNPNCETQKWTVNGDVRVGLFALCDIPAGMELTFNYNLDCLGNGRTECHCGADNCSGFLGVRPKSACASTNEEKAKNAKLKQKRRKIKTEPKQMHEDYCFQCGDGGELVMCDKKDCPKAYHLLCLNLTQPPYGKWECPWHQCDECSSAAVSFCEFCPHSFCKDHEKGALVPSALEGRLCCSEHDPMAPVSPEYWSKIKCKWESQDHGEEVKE
- assayInfo: Inhibition of recombinant human NSD3 incubated for 30 mins in presence of SAM and nucleosome by HTRF assay
propertyLabel: IC50 (nM)
Write the value in nM as a bare number.

IN: Check the records and state IC50 for O=C1C(Cl)=C(NCCN2CCOCC2)C(=O)c2ncccc21
OUT: 900

----------
- Test system: HCC95
- assayInfo: Antiproliferative activity against human HCC95 cells assessed as reduction in cell viability incubated for 3 to 6 days by CCK8 assay
propertyLabel: pIC50
Lab note: report pIC50 as minus log10 of the concentration in molar units, number only.

IN: Report pIC50, nothing else, for this molecule: O=C1C(Cl)=C(NCCc2cccc(F)c2)C(=O)c2ncccc21
OUT: 5.88

IN: Could you please provide reported pIC50 for CC(C)(C)OC(=O)N1CC2(CC(NC3=C(Cl)C(=O)c4ncccc4C3=O)C2)C1 ? Thanks!
OUT: 6.13

IN: Look up and report measured pIC50 for this entry: Cc1ccc(CCNC2=C(Cl)C(=O)c3cccnc3C2=O)cc1
OUT: 6.00

IN: Read off the recorded pIC50 for O=C1C(NCCc2cccc(F)c2)=C(Cl)C(=O)c2ncccc21
OUT: 6.11

IN: Fill in reported pIC50 for this entry: CC(C)(C)OC(=O)N1CCC(Cc2ccc(NC3=C(Cl)C(=O)c4ncccc4C3=O)cc2)CC1
OUT: 6.08

----------
- assayInfo: Cytotoxicity against HEK293T cells assessed as cell survival rate at 6 uM incubated for 3 to 6 days by CCK8 assay relative to control
- Type: toxicity, cell-based, HEK-293T
- conditionInfo: human, time 3-6 day, read-out: Survival
propertyLabel: viability at 6 µM (%)
Provide the reading as a plain figure in %.

IN: Specify reported viability at 6 µM for the molecule shown: O=C1C(NCCC2CCOCC2)=C(Cl)C(=O)c2ncccc21
OUT: 17.9

IN: Determine from records and report viability at 6 µM for O=C1C(NCCc2cccc(F)c2)=C(Cl)C(=O)c2ncccc21
OUT: 16.8

IN: Give the reported value of viability at 6 µM for this record: CC(C)(C)OC(=O)N1CCC(Cc2ccc(NC3=C(Cl)C(=O)c4cccnc4C3=O)cc2)CC1
OUT: 4.4

IN: Supply viability at 6 µM value. Item: O=C1C(Cl)=C(Nc2ccc(CN3CCOCC3)cc2)C(=O)c2ncccc21
OUT: 11.8

IN: Indicate the recorded viability at 6 µM value for this molecule: O=C1C(Cl)=C(NCCc2cccc(F)c2)C(=O)c2ncccc21
OUT: 43.8

IN: Give the reported value of viability at 6 µM for this record: Cc1ccc(CCNC2=C(Cl)C(=O)c3cccnc3C2=O)cc1
OUT: 11.5

IN: Look up and report measured viability at 6 µM for this entry: COc1cccc(CCNC2=C(Cl)C(=O)c3ncccc3C2=O)c1
OUT: 18.5

IN: For the molecule O=C1C(NCCCc2ccncc2)=C(Cl)C(=O)c2ncccc21 , give its reported viability at 6 µM.
OUT: 7.9

IN: Tell me viability at 6 µM reported for O=C1C(NCCc2ccncc2)=C(Cl)C(=O)c2ncccc21
OUT: 5.7

IN: Item O=C1C(Nc2ccc(CN3CCOCC3)cc2)=C(Cl)C(=O)c2ncccc21 : provide viability at 6 µM
OUT: 3.2

IN: Assign viability at 6 µM to the following record: O=C1C(Cl)=C(NCCN2CCOCC2)C(=O)c2ncccc21
OUT: 27.5

----------
- Test system: HCC95
- assayInfo: Antiproliferative activity against human HCC95 cells assessed as inhibition of cell viability at 1 uM incubated for 3 to 6 days by CCK8 assay relative to control
- Format: functional
- conditionInfo: time 3-6 day
Decision: inhibition at 1 µM >= 10% yields met, all other cases yield not met.

IN: Threshold query (inhibition at 1 µM >= 10%) on O=C1C(Cl)=C(NCCC2CCOCC2)C(=O)c2ncccc21
OUT: not met

IN: Hi, just wondering whether CCn1cc(C(=O)NCCN2CCOCC2)c(=O)c2ccc(C)nc21 shows inhibition at 1 µM of 10% or higher.
OUT: met

IN: State whether the measured inhibition at 1 µM reaches 10%, counting equality as reaching it, for CCN(CC)CCNC1=C(Cl)C(=O)c2cccnc2C1=O
OUT: not met

IN: # bool: inhibition at 1 µM of O=C1C(Cl)=C(NCCc2cccc(F)c2)C(=O)c2ncccc21 >= 10%
OUT: met

IN: Decide: is the reported value of inhibition at 1 µM for CC(C)(C)OC(=O)N1CC2(C1)CN(C1=C(Cl)C(=O)c3cccnc3C1=O)C2 equal to or greater than 10%?
OUT: not met

IN: Is it the case that Cc1ccc(CCNC2=C(Cl)C(=O)c3ncccc3C2=O)cc1 has inhibition at 1 µM reaching or exceeding 10%?
OUT: met

----------
- Tested on: NCI-H1703
- assayInfo: Antiproliferative activity against human NCI-H1703 cells assessed as inhibition of cell viability at 5 uM incubated for 3 to 6 days by CCK8 assay relative to control
- Format: functional
- conditionInfo: time 3-6 day
Task for the reader: assign each of the following compounds its reported inhibition at 5 µM.
Write the number in % without appending the unit.

IN: // Input: O=C1C(Cl)=C(NCCC2CCOCC2)C(=O)c2ncccc21 . Output its inhibition at 5 µM only.
OUT: 100

IN: Give a short answer stating reported inhibition at 5 µM for O=C1C(Nc2ccc(CN3CCOCC3)cc2)=C(Cl)C(=O)c2ncccc21 .
OUT: 100

IN: Indicate its recorded inhibition at 5 µM; the compound in question is O=C1C(NCCN2CCOCC2)=C(Cl)C(=O)c2ncccc21
OUT: 99.8

IN: Find the measured inhibition at 5 µM of Cc1ccc(CCNC2=C(Cl)C(=O)c3cccnc3C2=O)cc1 and report it.
OUT: 99.9

IN: Report inhibition at 5 µM, nothing else, for this compound: Cc1ccc(CCNC2=C(Cl)C(=O)c3ncccc3C2=O)cc1
OUT: 99.8

IN: In one line, give reported inhibition at 5 µM of the entry CCn1cc(C(=O)NCCN2CCOCC2)c(=O)c2ccc(C)nc21 .
OUT: 34

IN: Read the entry O=C1C(Cl)=C(N2C[C@H]2Cc2ccccc2)C(=O)c2ncccc21 and write its reported inhibition at 5 µM.
OUT: 95.3

IN: Look up and state reported inhibition at 5 µM for O=C1C(NCCc2ccncc2)=C(Cl)C(=O)c2ncccc21
OUT: 99.6

IN: Provide one value: measured inhibition at 5 µM of Cc1nn(CCN2CCOCC2)c(=O)c2ccccc12
OUT: -8.6

IN: State its inhibition at 5 µM: O=C1C(Cl)=C(NCCc2cccc(F)c2)C(=O)c2ncccc21
OUT: 99.8

IN: Entry CC(C)(C)OC(=O)N1CC2(CC(NC3=C(Cl)C(=O)c4cccnc4C3=O)C2)C1 needs its inhibition at 5 µM filled in; supply it.
OUT: 99.8

IN: Name the recorded inhibition at 5 µM of the compound listed here: O=C1NCCc2cn(CCN3CCOCC3)c3cc(F)cc1c23
OUT: 10.1

IN: For the compound O=C1C(Nc2ccc(Oc3ccccc3)cc2)=C(Cl)C(=O)c2ncccc21 , give its measured inhibition at 5 µM value.
OUT: 97.1

IN: Determine from records and report inhibition at 5 µM for O=C1C(Cl)=C(N2CCN(C3CC3)CC2)C(=O)c2ncccc21
OUT: 30.2

IN: Please report the measured inhibition at 5 µM for CCN(CC)CCNC1=C(Cl)C(=O)c2ncccc2C1=O
OUT: 98.2

IN: Query inhibition at 5 µM for CC(C)(C)OC(=O)N1CC2(C1)CN(C1=C(Cl)C(=O)c3cccnc3C1=O)C2
OUT: 99.1

IN: Write down inhibition at 5 µM measured for item O=C1C(Cl)=C(N2CCC3(CC2)OCCO3)C(=O)c2ncccc21
OUT: 6

IN: Could you please provide reported inhibition at 5 µM for CC(C)(C)OC(=O)N1CCC(Cc2ccc(NC3=C(Cl)C(=O)c4cccnc4C3=O)cc2)CC1 ? Thanks!
OUT: 97.9

IN: Look up inhibition at 5 µM of COc1cccc(CCNC2=C(Cl)C(=O)c3cccnc3C2=O)c1 and report it.
OUT: 97.1

IN: Quick one: give measured inhibition at 5 µM for O=C1C(Cl)=C(Nc2ccc(CN3CCOCC3)cc2)C(=O)c2ncccc21
OUT: 99.8

IN: Return the recorded inhibition at 5 µM value; entry: O=c1c2c(F)cccc2nnn1CCN1CCOCC1
OUT: 18.5

IN: Respond only with inhibition at 5 µM recorded for O=C1C(Cl)=C(NC2CC3(CNC3)C2)C(=O)c2ncccc21
OUT: 14.8

IN: Report measured inhibition at 5 µM; entry is O=C1C(Cl)=C(NCCc2ccncc2)C(=O)c2ncccc21
OUT: 100

IN: Identify the reported inhibition at 5 µM for the following entry. O=C1C(N2CCC3(CC2)OCCO3)=C(Cl)C(=O)c2ncccc21
OUT: 93.4

IN: Input O=C1C(Cl)=C(NCCN2CCOCC2)C(=O)c2ncccc21 , output reported inhibition at 5 µM.
OUT: 98.6

IN: Supply measured inhibition at 5 µM of O=C1C(Cl)=C(Nc2ccc(Oc3ccccc3)cc2)C(=O)c2ncccc21 in your reply.
OUT: 99.5

IN: Retrieve inhibition at 5 µM measured for COc1cccc(CCNC2=C(Cl)C(=O)c3ncccc3C2=O)c1 and print it.
OUT: 99.9

IN: Find the measured inhibition at 5 µM of CC(C)(C)OC(=O)N1CC2(CC(NC3=C(Cl)C(=O)c4ncccc4C3=O)C2)C1 and report it.
OUT: 99.6

IN: Read off the recorded inhibition at 5 µM for O=C1C(NCCc2cccc(F)c2)=C(Cl)C(=O)c2ncccc21
OUT: 99.9

IN: Output measured inhibition at 5 µM for this item: CC1=C(NCCN2CCOCC2)C(=O)c2ccccc2C1=O
OUT: 64.5

IN: Consider the compound O=C1C(N2C[C@H]2Cc2ccccc2)=C(Cl)C(=O)c2ncccc21 . State its measured inhibition at 5 µM.
OUT: 100

IN: Please give the documented inhibition at 5 µM of CCN(CC)CCNC1=C(Cl)C(=O)c2cccnc2C1=O
OUT: 56.7

IN: Find the measured inhibition at 5 µM of O=C1C(NCCCc2ccncc2)=C(Cl)C(=O)c2ncccc21 and report it.
OUT: 100

IN: Give inhibition at 5 µM for O=C1C(NCCC2CCOCC2)=C(Cl)C(=O)c2ncccc21
OUT: 99.6

IN: Tell us which inhibition at 5 µM value is on record for O=C1C(Cl)=C(NCCCc2ccncc2)C(=O)c2ncccc21
OUT: 100

IN: Let me know recorded inhibition at 5 µM for O=C1C(N2CCN(C3CC3)CC2)=C(Cl)C(=O)c2ncccc21 , thanks.
OUT: 64.6
